Recorded values, source BigSolDB 2.1.

Conditions: in n-butanol, 288.15 K
Measurement Type: solubility (mole fraction)
Lab note: jot down the number only; don't add units.

## Task Note solubility (mole fraction) for the molecule shown: "CS(=O)(=O)c1ccc([C@@H](O)[C@@H](CF)NC(=O)C(Cl)Cl)cc1"
## Result 0.000648

###

Conditions: in n-propanol, 323.15 K
Measurement Type: solubility (mole fraction)
Lab note: jot down the number only; don't add units.

## Task Note solubility (mole fraction) for the molecule shown: "CS(=O)(=O)c1ccc([C@@H](O)[C@@H](CF)NC(=O)C(Cl)Cl)cc1"
## Result 0.00712

###

Details: in n-butanol, 318.15 K
Measurement Type: solubility (mole fraction)
Lab note: jot down the number only; don't add units.

## Task Note solubility (mole fraction) for the molecule shown: "CS(=O)(=O)c1ccc([C@@H](O)[C@@H](CF)NC(=O)C(Cl)Cl)cc1"
## Result 0.00302

###

Details: in isopropanol, 288.15 K
Measurement Type: solubility (mole fraction)
Lab note: jot down the number only; don't add units.

## Task Note solubility (mole fraction) for the molecule shown: "CS(=O)(=O)c1ccc([C@@H](O)[C@@H](CF)NC(=O)C(Cl)Cl)cc1"
## Result 0.00076

###

Settings: in isopropanol, 303.15 K
Measurement Type: solubility (mole fraction)

## Task Note solubility (mole fraction) for the compound shown: "CS(=O)(=O)c1ccc([C@@H](O)[C@@H](CF)NC(=O)C(Cl)Cl)cc1"
## Result 0.00169

###

Conditions: in n-butanol, 308.15 K
Measurement Type: solubility (mole fraction)
Lab note: jot down the number only; don't add units.

## Task Note solubility (mole fraction) for the molecule shown: "CS(=O)(=O)c1ccc([C@@H](O)[C@@H](CF)NC(=O)C(Cl)Cl)cc1"
## Result 0.00183

###

Settings: in isopentanol, 303.15 K
Measurement Type: solubility (mole fraction)
Lab note: jot down the number only; don't add units.

## Task Note solubility (mole fraction) for the compound shown: "CS(=O)(=O)c1ccc([C@@H](O)[C@@H](CF)NC(=O)C(Cl)Cl)cc1"
## Result 0.00123

###

Details: in 2-ethylhexanol, 283.15 K
Measurement Type: solubility (mole fraction)
Lab note: jot down the number only; don't add units.

## Task Note solubility (mole fraction) for the molecule shown: "CS(=O)(=O)c1ccc([C@@H](O)[C@@H](CF)NC(=O)C(Cl)Cl)cc1"
## Result 0.000183

###

Conditions: in ethanol, 313.15 K
Measurement Type: solubility (mole fraction)
Lab note: jot down the number only; don't add units.

## Task Note solubility (mole fraction) for the compound shown: "CS(=O)(=O)c1ccc([C@@H](O)[C@@H](CF)NC(=O)C(Cl)Cl)cc1"
## Result 0.00562

###

Details: in isobutanol, 298.15 K
Measurement Type: solubility (mole fraction)
Lab note: jot down the number only; don't add units.

## Task Note solubility (mole fraction) for the compound shown: "CS(=O)(=O)c1ccc([C@@H](O)[C@@H](CF)NC(=O)C(Cl)Cl)cc1"
## Result 0.000613

###

Conditions: in n-butanol, 303.15 K
Measurement Type: solubility (mole fraction)
Lab note: jot down the number only; don't add units.

## Task Note solubility (mole fraction) for the compound shown: "CS(=O)(=O)c1ccc([C@@H](O)[C@@H](CF)NC(=O)C(Cl)Cl)cc1"
## Result 0.0014

###

Conditions: in n-propanol, 288.15 K
Measurement Type: solubility (mole fraction)
Lab note: jot down the number only; don't add units.

## Task Note solubility (mole fraction) for the compound shown: "CS(=O)(=O)c1ccc([C@@H](O)[C@@H](CF)NC(=O)C(Cl)Cl)cc1"
## Result 0.00125

###

Conditions: in propionic acid, 283.15 K
Measurement Type: solubility (mole fraction)
Lab note: jot down the number only; don't add units.

## Task Note solubility (mole fraction) for the compound shown: "CS(=O)(=O)c1ccc([C@@H](O)[C@@H](CF)NC(=O)C(Cl)Cl)cc1"
## Result 0.00027

###

Conditions: in isopropanol, 293.15 K
Measurement Type: solubility (mole fraction)
Lab note: jot down the number only; don't add units.

## Task Note solubility (mole fraction) for the molecule shown: "CS(=O)(=O)c1ccc([C@@H](O)[C@@H](CF)NC(=O)C(Cl)Cl)cc1"
## Result 0.00101

###

Conditions: in isopentanol, 313.15 K
Measurement Type: solubility (mole fraction)
Lab note: jot down the number only; don't add units.

## Task Note solubility (mole fraction) for the compound shown: "CS(=O)(=O)c1ccc([C@@H](O)[C@@H](CF)NC(=O)C(Cl)Cl)cc1"
## Result 0.00191

###

Settings: in isobutanol, 288.15 K
Measurement Type: solubility (mole fraction)
Lab note: jot down the number only; don't add units.

## Task Note solubility (mole fraction) for the compound shown: "CS(=O)(=O)c1ccc([C@@H](O)[C@@H](CF)NC(=O)C(Cl)Cl)cc1"
## Result 0.000385

###

Conditions: in 2-ethylhexanol, 323.15 K
Measurement Type: solubility (mole fraction)
Lab note: jot down the number only; don't add units.

## Task Note solubility (mole fraction) for the molecule shown: "CS(=O)(=O)c1ccc([C@@H](O)[C@@H](CF)NC(=O)C(Cl)Cl)cc1"
## Result 0.00129

###

Details: in isopropanol, 283.15 K
Measurement Type: solubility (mole fraction)
Lab note: jot down the number only; don't add units.

## Task Note solubility (mole fraction) for the molecule shown: "CS(=O)(=O)c1ccc([C@@H](O)[C@@H](CF)NC(=O)C(Cl)Cl)cc1"
## Result 0.00061

###

Settings: in isopropanol, 318.15 K
Measurement Type: solubility (mole fraction)
Lab note: jot down the number only; don't add units.

## Task Note solubility (mole fraction) for the compound shown: "CS(=O)(=O)c1ccc([C@@H](O)[C@@H](CF)NC(=O)C(Cl)Cl)cc1"
## Result 0.00363

###

Conditions: in isopropanol, 313.15 K
Measurement Type: solubility (mole fraction)

## Task Note solubility (mole fraction) for the molecule shown: "CS(=O)(=O)c1ccc([C@@H](O)[C@@H](CF)NC(=O)C(Cl)Cl)cc1"
## Result 0.00278

###

Conditions: in isobutanol, 308.15 K
Measurement Type: solubility (mole fraction)
Lab note: jot down the number only; don't add units.

## Task Note solubility (mole fraction) for the compound shown: "CS(=O)(=O)c1ccc([C@@H](O)[C@@H](CF)NC(=O)C(Cl)Cl)cc1"
## Result 0.00104

###

Settings: in n-propanol, 293.15 K
Measurement Type: solubility (mole fraction)
Lab note: jot down the number only; don't add units.

## Task Note solubility (mole fraction) for the compound shown: "CS(=O)(=O)c1ccc([C@@H](O)[C@@H](CF)NC(=O)C(Cl)Cl)cc1"
## Result 0.00165

###

Details: in propionic acid, 298.15 K
Measurement Type: solubility (mole fraction)
Lab note: jot down the number only; don't add units.

## Task Note solubility (mole fraction) for the molecule shown: "CS(=O)(=O)c1ccc([C@@H](O)[C@@H](CF)NC(=O)C(Cl)Cl)cc1"
## Result 0.000562

###

Conditions: in isobutanol, 318.15 K
Measurement Type: solubility (mole fraction)
Lab note: jot down the number only; don't add units.

## Task Note solubility (mole fraction) for the compound shown: "CS(=O)(=O)c1ccc([C@@H](O)[C@@H](CF)NC(=O)C(Cl)Cl)cc1"
## Result 0.0017

###

Settings: in isobutanol, 293.15 K
Measurement Type: solubility (mole fraction)
Lab note: jot down the number only; don't add units.

## Task Note solubility (mole fraction) for the compound shown: "CS(=O)(=O)c1ccc([C@@H](O)[C@@H](CF)NC(=O)C(Cl)Cl)cc1"
## Result 0.000497

###

Details: in 2-ethylhexanol, 313.15 K
Measurement Type: solubility (mole fraction)
Lab note: jot down the number only; don't add units.

## Task Note solubility (mole fraction) for the compound shown: "CS(=O)(=O)c1ccc([C@@H](O)[C@@H](CF)NC(=O)C(Cl)Cl)cc1"
## Result 0.000813

###

Details: in ethanol, 298.15 K
Measurement Type: solubility (mole fraction)
Lab note: jot down the number only; don't add units.

## Task Note solubility (mole fraction) for the compound shown: "CS(=O)(=O)c1ccc([C@@H](O)[C@@H](CF)NC(=O)C(Cl)Cl)cc1"
## Result 0.00309

###

Details: in n-propanol, 303.15 K
Measurement Type: solubility (mole fraction)
Lab note: jot down the number only; don't add units.

## Task Note solubility (mole fraction) for the compound shown: "CS(=O)(=O)c1ccc([C@@H](O)[C@@H](CF)NC(=O)C(Cl)Cl)cc1"
## Result 0.00269

###

Details: in n-butanol, 298.15 K
Measurement Type: solubility (mole fraction)
Lab note: jot down the number only; don't add units.

## Task Note solubility (mole fraction) for the molecule shown: "CS(=O)(=O)c1ccc([C@@H](O)[C@@H](CF)NC(=O)C(Cl)Cl)cc1"
## Result 0.00112

###

Settings: in n-propanol, 308.15 K
Measurement Type: solubility (mole fraction)
Lab note: jot down the number only; don't add units.

## Task Note solubility (mole fraction) for the compound shown: "CS(=O)(=O)c1ccc([C@@H](O)[C@@H](CF)NC(=O)C(Cl)Cl)cc1"
## Result 0.00359
